The values you see were collected from the supplement of paper PMC10567573.

B1: DFFB (parent)
chain: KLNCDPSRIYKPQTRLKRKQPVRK

# Variants of: B1
# experiment.description: protein stability index of a GFP-peptide fusion (GPS, HEK-293T) (PSI 1-6); higher = more stable;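 further: lentivirally expressed fusions sorted by FACS into six bins by GFP to DsRed ratio, PSI derived from sequencing read proportions per bin multiplied by bin number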
# cond: c terminus: a fixed tail appended
quantity: protein stability index
One number for each entry.

{"mutation.label": "Y10S", "observed": 4.16}
{"mutation.label": "Q13R", "observed": 3.08}
{"mutation.label": "P21Y", "observed": 3.91}
{"mutation.label": "K11Q", "observed": 2.07}
{"mutation.label": "V22C", "observed": 3.41}
{"mutation.label": "K24N", "observed": 3.44}

Hey, can you go through the list below and give me protein stability index for every item?
1. P12Q
2. Q20A
3. K17T
4. P12K
5. P12S
6. D5A
7. Y10E

Result:
1: 2.24; 2: 3.38; 3: 3.14; 4: 3.46; 5: 3.89; 6: 3.46; 7: 3.56
